ASSAYED_TARGET: Tau P301L (Homo sapiens, UniProt P10636, P618L)
Construct: expressed in transfected cells
Sequence (P10636 1-441 isoform P10636-8 P301L): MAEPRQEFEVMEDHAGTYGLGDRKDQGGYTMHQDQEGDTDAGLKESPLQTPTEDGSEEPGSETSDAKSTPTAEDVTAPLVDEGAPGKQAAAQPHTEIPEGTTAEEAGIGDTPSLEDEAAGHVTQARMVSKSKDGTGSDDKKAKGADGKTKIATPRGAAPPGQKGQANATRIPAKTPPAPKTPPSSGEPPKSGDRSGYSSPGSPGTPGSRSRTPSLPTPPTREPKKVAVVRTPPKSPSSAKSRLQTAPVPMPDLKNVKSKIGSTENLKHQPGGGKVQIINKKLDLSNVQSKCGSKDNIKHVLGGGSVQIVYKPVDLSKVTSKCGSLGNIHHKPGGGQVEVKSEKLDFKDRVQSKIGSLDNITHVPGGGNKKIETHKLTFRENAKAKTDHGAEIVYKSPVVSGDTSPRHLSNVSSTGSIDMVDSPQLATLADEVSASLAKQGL
ASSAY_NAME: In vitro tau degradation assay in CHOK1 Tau P301L cells (sarkosyl insoluble tau, WES)
Assay type: cell-based
CONDITION_INFO: CHO-K1; remaining tau protein in sarkosyl insoluble pellet; CHOK1 Tau P301L cells treated 48 hours with test compound at 1 μM, doxycycline removed for the last 24 hours; relative to DMSO doxycycline control; read-out: Tau Protein Degradation effect at 1 μM
I'd be grateful if you could share measured remaining activity at 1 µM for these entries.

MOLECULE	remaining activity at 1 µM
O=C1CCC(N2C(=O)c3ccc(OCCC4CCN(C[C@H]5C[C@H](Oc6cc(Nc7ccc8ncccc8n7)ccn6)C5)CC4)cc3C2=O)C(=O)N1 (stereo partly drawn)	> 50%
Cn1c2ccncc2c2ccc(C3CCN([C@H]4C[C@@H](OC5CCN(CCOc6ccc7c(c6)C(=O)N(C6CCC(=O)NC6=O)C7=O)CC5)C4)CC3)cc21 (stereo partly drawn)	< 50%
Cc1cc(Nc2ccc3nc(N4CCC(CCN5CCN(c6ccc7c(c6)C(=O)N(C6CCC(=O)NC6=O)C7=O)CC5)CC4)ccc3n2)ccn1 (stereo not drawn)	< 50%
Cn1c2ccncc2c2ccc(-c3ccc(O[C@H]4C[C@H](OC5CCN(CCCOc6ccc7c(c6)C(=O)N(C6CCC(=O)NC6=O)C7=O)CC5)C4)nc3)cc21 (stereo partly drawn)	> 50%
Cc1ccc(-c2cn3ccc(N(C)CCOCCOCCOc4ccc5c(c4)C(=O)N(C4CCC(=O)NC4=O)C5=O)cc3n2)cc1 (stereo not drawn)	< 50%

For every record below, what is its remaining activity at 1 µM?
1. Cc1ncsc1-c1ccc([C@H](C)NC(=O)[C@@H]2C[C@@H](O)CN2C(=O)[C@@H](NC(=O)COCCCCCN2CCC(OC3CC(Oc4ccc(-c5ccc6c7cnccc7n(C)c6c5)cn4)C3)CC2)C(C)(C)C)cc1 (stereo partly drawn)
2. O=C1CCC(N2C(=O)c3ccc(C#CCN4CCN(CCC5CCN(c6ccc7c8cnccc8n(C(F)F)c7c6)CC5)CC4)cc3C2=O)C(=O)N1 (stereo not drawn)

**Result**
> 50%
< 50%

For every record below, what is its remaining activity at 1 µM?
1. Cn1c2ccncc2c2ccc(-c3ccc(O[C@H]4C[C@H](CN5CCC(CC6CCN(c7ccc8c(c7)C(=O)N(C7CCC(=O)NC7=O)C8=O)CC6)CC5)C4)nc3)cc21 (stereo partly drawn)
2. O=C1CCC(N2C(=O)c3ccc(N4CCN(CCC5CC6(C5)CN(c5ccc(-c7ccc8c(c7)[nH]c7ccncc78)cn5)C6)CC4)cc3C2=O)C(=O)N1 (stereo not drawn)
3. Cc1ncsc1-c1ccc([C@H](C)NC(=O)[C@@H]2C[C@@H](O)CN2C(=O)[C@@H](NC(=O)CN2CCN(CCN3CCC(O[C@H]4C[C@H](Oc5ccc(-c6ccc7c8cnccc8n(C)c7c6)cn5)C4)CC3)CC2)C(C)(C)C)cc1

**Result**
["< 50%", "< 50%", "< 50%"]

For every record below, what is its remaining activity at 1 µM?
1. Cn1c2ccncc2c2ccc(-c3ccc(O[C@H]4C[C@H](CN5CCC(CCCCCOc6ccc7c(c6)C(=O)N(C6CCC(=O)NC6=O)C7=O)CC5)C4)nc3)cc21 (stereo partly drawn)
2. Cn1c2ccncc2c2ccc(-c3ccc(OCCOCCOCCOc4ccc5c(c4)C(=O)N(C4CCC(=O)NC4=O)C5=O)nc3)nc21 (stereo not drawn)

**Result**
1. < 50%
2. > 50%

For every record below, what is its remaining activity at 1 µM?
1. O=C1CCC(N2C(=O)c3ccc(C#CCN4CCN(CCC5CCN(c6ncc(-c7ccc8c9cnccc9n(C(F)F)c8c7)cc6F)CC5)CC4)cc3C2=O)C(=O)N1 (stereo not drawn)
2. Cn1c2ccncc2c2ccc(-c3ccc(O[C@H]4C[C@H](CN5CCC(CCOc6ccc7c(c6)C(=O)N(C6CCC(=O)NC6=O)C7=O)CC5)C4)nc3)cc21 (stereo partly drawn)
3. Cc1ccc(-c2cn3ccc(N4CCC(CCN5CCN(c6ccc7c(c6)C(=O)N(C6CCC(=O)NC6=O)C7=O)CC5)CC4)cc3n2)cc1 (stereo not drawn)
4. O=C1CCC(N2C(=O)c3ccc(OCCCCCN4CCC(OC5CN(c6ncc(-c7ccc8c9cnccc9n(C(F)F)c8c7)cc6C(F)(F)F)C5)CC4)cc3C2=O)C(=O)N1 (stereo not drawn)
5. O=C1CCC(N2C(=O)c3ccc(N4CCN(CCC5CCN(c6ccnc(Nc7ccc8ncccc8n7)c6)CC5)CC4)cc3C2=O)C(=O)N1 (stereo not drawn)

**Result**
1. < 50%
2. > 50%
3. < 50%
4. < 50%
5. < 50%

For every record below, what is its remaining activity at 1 µM?
1. O=C1CCC(N2C(=O)c3ccc(N4CCN(CCC5CCN(C6CCN(c7ccc8c9cnccc9n(C(F)F)c8c7)CC6)CC5)CC4)cc3C2=O)C(=O)N1 (stereo not drawn)
2. Cc1ncsc1-c1ccc([C@H](C)NC(=O)[C@@H]2C[C@@H](O)CN2C(=O)[C@H](c2cc(OCCCCCN3CCC(O[C@H]4C[C@H](Oc5ccc(-c6ccc7c8cnccc8n(C)c7c6)cn5)C4)CC3)no2)C(C)C)cc1
3. Cn1c2ccncc2c2ccc(-c3ccc(OC4CC5(C4)CN(C(=O)CN4CCN(CC6CN(c7ccc8c(c7)C(=O)N(C7CCC(=O)NC7=O)C8=O)C6)CC4)C5)nc3)cc21 (stereo not drawn)
4. Cn1c2ccncc2c2ccc(-c3ccc(O[C@H]4C[C@H](Oc5ccc(C#CCN6CC(Oc7ccc8c(c7)CN(C7CCC(=O)NC7=O)C8=O)C6)nc5)C4)nc3)cc21 (stereo partly drawn)

**Result**
1: < 50%; 2: > 50%; 3: > 50%; 4: > 50%

====

ASSAYED_TARGET: Tau P301L (Homo sapiens, UniProt P10636, P618L)
Construct: expressed in transfected cells
ASSAY_NAME: In vitro tau degradation assay in CHOK1 Tau P301L cells (sarkosyl insoluble tau, WES)
Type: cell-based
CONDITION_INFO: CHO-K1; CHOK1 Tau P301L cells; remaining tau in sarkosyl insoluble pellet; 48 hours with test compound at 1 μM, doxycycline removed for last 24 hours; relative to DMSO doxycycline control; read-out: Tau Protein Degradation effect at 1 μM
I'd be grateful if you could share measured remaining activity at 1 µM for these entries.

COMPOUND	ASSAYED_TARGET	OBSERVED_VALUE
COc1ccc2nc(/C=C/C=C/c3ccc(OCCOCCOc4ccc5c(c4)C(=O)N(C4CCC(=O)NC4=O)C5=O)nc3)sc2c1 (stereo not drawn)	Tau P301L (Homo sapiens, UniProt P10636, P618L)	< 50%
CN(C)c1ccn2cc(-c3cnc(N4CCC(CCN5CCN(c6ccc7c(c6)C(=O)N(C6CCC(=O)NC6=O)C7=O)CC5)CC4)c(F)c3)nc2c1 (stereo not drawn)	Tau P301L (Homo sapiens, UniProt P10636, P618L)	< 50%

For every record below, what is its remaining activity at 1 µM?
1. O=C1CCC(N2C(=O)c3ccc(N4CCN(C5CC6(CCN(c7ncc(-c8ccc9c%10cnccc%10n(C(F)F)c9c8)cc7F)CC6)C5)CC4)cc3C2=O)C(=O)N1 (stereo not drawn)
2. O=C1CCC(N2C(=O)c3cc(F)c(N4CCCN(CCC5CCN(c6ncc(-c7ccc8c9cnccc9n(C(F)F)c8c7)cc6F)CC5)CC4)cc3C2=O)C(=O)N1 (stereo not drawn)

**Result**
["> 50%", "< 50%"]

For every record below, what is its remaining activity at 1 µM?
1. O=C1CCC(N2C(=O)c3ccc(N4CCN(CCOCCN5CCCc6cc(-c7ccc8c9cnccc9n(C(F)F)c8c7)cc(F)c65)CC4)cc3C2=O)C(=O)N1 (stereo not drawn)
2. CC1c2ccc(-c3ccc4c5cnccc5n(C(F)F)c4c3)cc2CCN1CCCCCOc1ccc2c(c1)C(=O)N(C1CCC(=O)NC1=O)C2=O (stereo not drawn)

**Result**
1: < 50%; 2: > 50%

====

ASSAYED_TARGET: Tau P301L (Homo sapiens, UniProt P10636, P618L)
Construct: expressed in transfected cells
ASSAY_NAME: In vitro tau degradation assay in CHOK1 Tau P301L cells (sarkosyl insoluble tau, WES)
Assay type: cell-based
CONDITION_INFO: CHO-K1; remaining tau protein in sarkosyl insoluble pellet; CHOK1 Tau P301L cells treated 48 hours with test compound at 1 μM, doxycycline removed for the last 24 hours; relative to DMSO doxycycline control; read-out: Tau Protein Degradation effect at 1 μM
RESULT_TYPE: remaining activity at 1 µM

COMPOUND	remaining activity at 1 µM
O=C1CCC(N2C(=O)c3ccc(N4CCN(CCC5CCN(c6ncc(-c7ccc8c9cc(F)cnc9n(C(F)F)c8c7)cc6F)CC5)CC4)cc3C2=O)C(=O)N1 (centres unmarked)	< 50%

For every record below, what is its remaining activity at 1 µM?
1. Cn1c2ccncc2c2ccc(-c3ccc(O[C@H]4C[C@H](OC5CCN(c6ccc7c(c6)C(=O)N(C6CCC(=O)NC6=O)C7=O)CC5)C4)nc3)cc21 (some centres unmarked)
2. O=C1CCC(N2C(=O)c3ccc(N4CCN(CCC5CCN(c6ncc(-c7ccc8c9cnccc9n(C(F)F)c8c7)cc6C(F)(F)F)CC5)CC4)cc3C2=O)C(=O)N1 (centres unmarked)

**Result**
< 50%
< 50%

For every record below, what is its remaining activity at 1 µM?
1. O=C1CCC(N2C(=O)c3ccc(OCCOCCOCCN4CCC(c5ccc6c(c5)[nH]c5ccncc56)CC4)cc3C2=O)C(=O)N1 (centres unmarked)
2. Cn1c2ccncc2c2ccc(-c3ccc(O[C@H]4C[C@H](N(C)C5CC6(C5)CN(CCC5CCN(c7ccc8c(c7)C(=O)N(C7CCC(=O)NC7=O)C8=O)CC5)C6)C4)nc3)cc21 (some centres unmarked)

**Result**
> 50%
< 50%
